The following binders are shown together with reported Relative Proliferation Fold Change NKL 1:2 values.
TARGET_SYSTEM: T1, orthogonal hCD122 receptor (hoRb), hCD122 with H133D and Y134F (human, UniProt P14784 27-550); further: reference of the scale not given here
T1 sequence: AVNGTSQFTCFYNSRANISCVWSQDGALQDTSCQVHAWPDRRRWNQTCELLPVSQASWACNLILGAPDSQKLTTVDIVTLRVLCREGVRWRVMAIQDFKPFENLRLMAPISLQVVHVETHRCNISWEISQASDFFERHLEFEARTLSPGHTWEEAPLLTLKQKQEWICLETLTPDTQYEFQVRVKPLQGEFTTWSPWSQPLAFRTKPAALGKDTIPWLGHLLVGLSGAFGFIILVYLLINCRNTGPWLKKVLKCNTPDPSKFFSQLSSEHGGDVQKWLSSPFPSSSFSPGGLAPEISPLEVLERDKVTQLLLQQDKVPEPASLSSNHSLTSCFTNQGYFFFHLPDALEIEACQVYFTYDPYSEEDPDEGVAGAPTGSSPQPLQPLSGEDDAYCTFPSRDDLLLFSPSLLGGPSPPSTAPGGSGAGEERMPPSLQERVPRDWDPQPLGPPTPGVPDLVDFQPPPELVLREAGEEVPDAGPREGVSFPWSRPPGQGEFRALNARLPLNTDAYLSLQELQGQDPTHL
ASSAY_INFO: cell-based or functional assay
EXPERIMENTAL_ENDPOINT: Relative Proliferation Fold Change NKL 1:2 (fold)

{"BINDER": "T3K, SQVLKA (ligand) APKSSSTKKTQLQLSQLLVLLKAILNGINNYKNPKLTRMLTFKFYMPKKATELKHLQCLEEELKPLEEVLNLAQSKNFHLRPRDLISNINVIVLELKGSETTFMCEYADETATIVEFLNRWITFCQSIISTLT", "UNITS_SYMBOL": "fold", "REPORTED_MEASUREMENT": 3.47}
{"BINDER": "R38W, SQVLKA (ligand) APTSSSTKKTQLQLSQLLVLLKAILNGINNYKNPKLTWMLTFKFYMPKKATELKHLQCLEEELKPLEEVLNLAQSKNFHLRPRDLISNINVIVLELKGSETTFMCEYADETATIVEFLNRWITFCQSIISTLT", "UNITS_SYMBOL": "fold", "REPORTED_MEASUREMENT": 2.74}
